TARGET OR SYSTEM: human PKCθ full length enzyme (Homo sapiens, UniProt Q04759)
Construct: human PKCθ full length enzyme (Panvera Cat# P2996); purchased Panvera P2996
Sequence (Q04759 whole entry): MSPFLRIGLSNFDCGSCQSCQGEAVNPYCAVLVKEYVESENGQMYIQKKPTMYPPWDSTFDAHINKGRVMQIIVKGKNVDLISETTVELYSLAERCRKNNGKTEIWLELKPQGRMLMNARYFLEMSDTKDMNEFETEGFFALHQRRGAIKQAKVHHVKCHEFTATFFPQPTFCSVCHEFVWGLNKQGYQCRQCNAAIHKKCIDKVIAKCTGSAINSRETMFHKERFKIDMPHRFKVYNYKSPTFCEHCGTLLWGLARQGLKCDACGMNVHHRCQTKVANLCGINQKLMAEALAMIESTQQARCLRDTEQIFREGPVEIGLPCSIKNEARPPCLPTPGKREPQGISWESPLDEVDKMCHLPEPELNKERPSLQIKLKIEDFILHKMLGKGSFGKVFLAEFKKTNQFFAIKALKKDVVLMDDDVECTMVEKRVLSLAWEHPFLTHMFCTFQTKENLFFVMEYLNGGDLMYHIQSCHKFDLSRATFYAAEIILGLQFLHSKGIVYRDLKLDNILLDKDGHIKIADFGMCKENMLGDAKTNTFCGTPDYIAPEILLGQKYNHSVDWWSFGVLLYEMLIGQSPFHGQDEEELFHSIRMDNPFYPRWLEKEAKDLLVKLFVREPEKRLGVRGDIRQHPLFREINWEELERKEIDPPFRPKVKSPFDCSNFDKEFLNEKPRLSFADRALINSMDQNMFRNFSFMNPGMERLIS
PROCEDURE TEXT: PKCθ IMAP assay (fluorescence polarization)
Format: biochemical
EXPERIMENTAL SETUP: human PKCθ full length enzyme, IMAP; average value; read-out: IC50 PKCθ IMAP
pIC50: −log10 of the molar value.
Tick 1 if pIC50 is 8 or greater. Tick -1 if pIC50 is less than 8.

Prompt: Could you please find out whether Cc1c(Nc2c(C#N)cncc2-c2ccc3sccc3c2)ccc2[nH]ccc12 has pIC50 that meets 8 or exceeds it?
Completion: -1

Prompt: Check this compound for pIC50 at or above 8: Cc1c(Nc2c(C#N)cncc2-c2cc3cc(CN4CCN(C)CC4)ccc3o2)cc(Cl)c2[nH]ccc12
Completion: 1

Prompt: Has Cc1c(Nc2c(C#N)cncc2-c2cc3cc(CN4CCNCC4)ccc3o2)ccc2[nH]ccc12 a recorded pIC50 greater than or equal to 8?
Completion: 1

Prompt: Evaluate CCN1CCN(CCOc2cc(-c3cncc(C#N)c3Nc3ccc4[nH]ccc4c3)ccc2OC)CC1 : pIC50 at minimum 8?
Completion: -1

Prompt: Please check the record COc1ccc(-c2cncc(C#N)c2Nc2ccc3[nH]ccc3c2)cc1OCCN1CCCCC1 and state if its pIC50 is at or above 8.
Completion: -1

Prompt: Could you please find out whether N#Cc1cncc(-c2cccc(-c3ccc(C(=O)NC4CCCC4)cc3)c2)c1Nc1cccc2[nH]ccc12 has pIC50 that meets 8 or exceeds it?
Completion: -1

Prompt: Answer whether pIC50 of N#Cc1cncc(-c2cccc(CO)c2)c1Nc1cccc2[nH]ccc12 is greater than or equal to 8.
Completion: -1

Prompt: Item Cc1cc2[nH]ccc2cc1Nc1c(C#N)cncc1-c1ccc(OCCN2CCC(N3CCCC3)CC2)cc1 with pIC50 of 8 or above?
Completion: -1

Prompt: Form field: pIC50 at least 8? Entry: N#Cc1cncc(-c2cccc(-c3ccc(CN4CCOCC4)s3)c2)c1Nc1ccc2[nH]ccc2c1
Completion: -1

Prompt: Confirm if pIC50 reported for the compound COc1cc(Br)c(-c2cncc(C#N)c2Nc2ccc3[nH]ccc3c2)cc1OC is 8 or above.
Completion: -1

Prompt: Check the entry Cc1c(Nc2c(C#N)cncc2-c2ccc3[nH]ccc3c2)ccc2[nH]ccc12 : does pIC50 equal or exceed 8?
Completion: -1

Prompt: Hi team, for N#Cc1cncc(-c2cccc(-c3ccc(C(=O)NCCCCO)cc3)c2)c1Nc1cccc2[nH]ccc12 , is the recorded pIC50 at or above 8?
Completion: -1

Prompt: Reported pIC50 reaches at least 8 for Cc1c(Nc2c(C#N)cncc2-c2ccc(OCCN3CCC(c4ccccc4)CC3)cc2)ccc2[nH]ccc12 ?
Completion: -1

----------
TARGET OR SYSTEM: human PKCθ full length enzyme (Homo sapiens)
Construct: human PKCθ full length enzyme (Panvera Cat# P2996); purchased Panvera P2996
PROCEDURE TEXT: PKCθ IMAP assay (fluorescence polarization)
Format: biochemical
EXPERIMENTAL SETUP: human PKCθ full length enzyme, IMAP; average value; read-out: IC50 PKCθ IMAP
VALUE KIND: pIC50
Convention used: pIC50 is expressed as -log10 of the molar concentration.

The molecule COc1ccc(-c2cncc(C#N)c2Nc2ccc3[nH]ccc3c2C)c(Cl)c1 showed pIC50 equal to 7.52

pIC50 measured on N#Cc1cncc(-c2cc3cc(CNC(=O)CCN)ccc3s2)c1Nc1cccc2[nH]ccc12 = 8.70

Please fill in: pIC50 reported for N#Cc1cncc(-c2ccc3[nH]ccc3c2)c1Nc1ccc2[nH]ccc2c1 = 7.30

// pIC50 value for Cc1c(Nc2c(C#N)cncc2-c2cc3cc(OCCN4CCN(C)CC4)ccc3o2)ccc2[nH]ccc12 : 8.40

Per the records, this molecule ( Cc1c(Nc2c(C#N)cncc2-c2ccc(OCCNCCO)cc2)ccc2[nH]ccc12 ) has pIC50 equal to 8.40

Reported pIC50 for Cc1c(Nc2c(C#N)cncc2-c2ccc(CN3CCCCC3)o2)ccc2[nH]ccc12 was 7.39
